- target of assay: T1, Nrd1 CID K21D (S. cerevisiae, UniProt P53617 1-153, K21D)
- T1 construct: the construct for anisotropy is made as described previously (Kubicek et al, 2012); also called CID(K21D)-His6; source: recombinant, produced and purified as described previously (Kubicek et al, 2012); plasmid with T7 promoter
- T1 sequence (looked up): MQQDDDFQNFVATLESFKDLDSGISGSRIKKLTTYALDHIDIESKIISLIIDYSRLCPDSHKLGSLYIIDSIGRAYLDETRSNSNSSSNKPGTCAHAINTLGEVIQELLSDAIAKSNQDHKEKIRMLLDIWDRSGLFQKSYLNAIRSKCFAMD
- test summary: fluorescence polarisation; fluorescence anisotropy, equilibrium binding of Nrd1 CID variants to FAM-labelled NIM peptides; 10°C, 50 mM Na2HPO4, 100 mM NaCl, pH 8; 1:1 model with non-specific binding (DynaFit)
- condition summary: both partners purified
Ends that are not written are not given here. FAM = 5,6-carboxyfluorescein
readout label: pKd
Reminder that pKd means the negative base-10 logarithm of the concentration expressed in mol/L.

Sample {FAM}-DDDEDDYTPSIS (peptide, UniProt Q00416 2052-2063, looked up, Sen1, S. cerevisiae, fragment harbouring aa 2,052-2,063; source: synthetic peptide) [Sen1 NIM peptide (Sen1 aa 2,052-2,063)] — what was its pKd?
5.10
